The origin of these recorded values is patent US9839614B2.

READOUT_TYPE: melting point (°C)

COMPOUND	UNIT_ABBREVIATION	melting point
CC(C)[Si](OC(=O)Cc1cc(I)c(Oc2cc(I)c(OCC3CO3)c(I)c2)c(I)c1)(C(C)C)C(C)C (stereo not shown)	°C	120
CC(C)[Si](OC(=O)Cc1cc(I)c(Oc2cc(I)c(O)c(I)c2)c(I)c1)(C(C)C)C(C)C [Tetrac analog 5]	°C	146
CC(C)(C)OC(=O)NC(Cc1cc(I)c(Oc2cc(I)c(OCC3CO3)c(I)c2)c(I)c1)C(=O)OCC1CO1 (stereo not shown) (hydrate or solvate) [T4 analog 14]	°C	105
O=C(Cc1cc(I)c(Oc2cc(I)c(OCC3CO3)c(I)c2)c(I)c1)OCC1CO1 (stereo not shown) [Tetrac analog 8]	°C	116

a = O=C(Cc1cc(I)c(Oc2cc(I)c(OCCCl)c(I)c2)c(I)c1)NC1CCCCC1 [Tetrac analog 15]
b = CC(C)[Si](OC(=O)C(Cc1cc(I)c(Oc2cc(I)c(OCC3CO3)c(I)c2)c(I)c1)NC(=O)OC(C)(C)C)(C(C)C)C(C)C (stereo not shown) (hydrate or solvate)
Between a and b , whose recorded melting point is greater? Write the label of whichever entry you select. a
